Tested on: NCI-H226 lung
Assay: NCI tumour cell line growth inhibition, 48 h
Recorded GI50 for the following compounds

>  <COMPOUND>
O=C1CC(c2ccc3c(c2)OCO3)Nc2cc3c(cc21)OCO3 (centres undefined)

>  <GI50>
13.9 µM

$$$$
>  <COMPOUND>
CC(C)[C@@]12C[C@@H](OC(=O)COC(=O)/C=C/c3ccccc3)[C@@](C)(O1)[C@@H]1CC[C@@H](C)[C@H]1[C@@H]2OC(=O)/C=C/c1ccccc1

>  <GI50>
> 100 µM

$$$$
>  <COMPOUND>
COc1ccc(-c2nnc(SCC(=O)Nc3ccc(/C(C)=N\O)cc3)n2-c2ccccc2)cc1OC

>  <GI50>
7.28 µM

$$$$
>  <COMPOUND>
Cn1ccnc1C(=O)/C=C/c1ccc(CC(=O)Nc2ccc(S(F)(F)(F)(F)F)cc2)cc1

>  <GI50>
2.93 µM

$$$$
>  <COMPOUND>
O=C1/C(=C/c2ccc([N+](=O)[O-])o2)Oc2ccc(Br)cc21

>  <GI50>
2.12 µM

$$$$

Task item: Which GI50 is reported for this compound? [C-]#[O+].[C-]#[O+].[C-]#[O+].[C-]#[O+].[Ir].[Ir].[O-]c1ccc2ccccc2c1C=Nc1ccc(N=Cc2c([O-])ccc3ccccc23)cc1
Reply: > 100 µM

---

System: HS 578T breast
Test: NCI tumour cell line growth inhibition, 48 h
PROPERTY_MEASURED: GI50

Below are worked cases with known answers.
>  <MOLECULE>
CC(CN1CCN(C)CC1)CN1c2ccccc2Sc2ccc(C(F)(F)F)cc21 (centres undefined)

>  <TARGET_OR_TEST_SYSTEM>
HS 578T breast

>  <RESULT>
1880 nM

$$$$
>  <MOLECULE>
CCCCCCCCCCCCCCCC[N+](C)(C)CCN(Cc1ccc(OC)cc1)c1ncccn1

>  <TARGET_OR_TEST_SYSTEM>
HS 578T breast

>  <RESULT>
1760 nM

$$$$
>  <MOLECULE>
O=C1C=C[C@@]23C[C@@H](Nc4c(O)c5c6c(c42)=NCCC=6C=N5)SC3=C1

>  <TARGET_OR_TEST_SYSTEM>
HS 578T breast

>  <RESULT>
3750 nM

$$$$

Now take the following molecule into account.
Task item: Entry COC(=O)c1cc(-c2cc(OC)c(OC)c(OC)c2)[nH]c1N/N=C/c1c(Cl)cccc1Cl : reported GI50 = ?
Reply: 1150 nM

---

System: UACC-257 melanoma
Test: NCI tumour cell line growth inhibition, 48 h
PROPERTY_MEASURED: TGI

Some molecules with recorded TGI:
>  <MOLECULE>
C=C(C)[C@@H]1CC[C@]2(C(=O)NCCNCCNCCN)CC[C@]3(C)[C@H](CC[C@@H]4[C@@]5(C)CC[C@H](O)C(C)(C)[C@@H]5CC[C@]43C)[C@@H]12

>  <TGI>
33.1 µM

$$$$
>  <MOLECULE>
CN=CN(C)c1c2ccccc2nc2ccccc12

>  <TGI>
> 100 µM

$$$$
>  <MOLECULE>
CC(=O)Oc1ccc2c(C)cc(=O)oc2c1

>  <TGI>
> 100 µM

$$$$
>  <MOLECULE>
CCN(CC)c1ccc(C2SCC(=O)N2c2ccc(NC(=O)c3ccc(N4C(=O)CSC4c4ccc(N(CC)CC)cc4)cc3)cc2)cc1 (centres undefined)

>  <TGI>
> 100 µM

$$$$
>  <MOLECULE>
COc1ccccc1N1C(Cl)C(=O)C1c1c[nH]c2ccccc12 (centres undefined)

>  <TGI>
> 100 µM

$$$$
>  <MOLECULE>
CCn1c2ccccc2c2ccc3c(c21)C(=O)c1ccccc1C3=O

>  <TGI>
> 100 µM

$$$$
>  <MOLECULE>
CC(C)C[C@H](NC(=O)[C@H]1O[C@@H]1C(=O)O)C(=O)NCCc1ccc(O)cc1

>  <TGI>
> 100 µM

$$$$
>  <MOLECULE>
C/C(=N\Nc1ccccc1Br)c1cccc(/C(C)=N/Nc2ccccc2Br)n1

>  <TGI>
> 100 µM

$$$$

Task item: Form: Entry = CN(C)c1ccc(-c2cc(-c3ccc(Nc4nc(Nc5ccccc5)nc(Nc5ccc(Cl)cc5)n4)cc3)nc(N)n2)cc1 | System = UACC-257 melanoma | TGI = ____
Reply: 37.4 µM

---

Tested on: U251 CNS
Assay: NCI tumour cell line growth inhibition, 48 h
PROPERTY_MEASURED: TGI

Illustrative cases are given below, each with its answer.
>  <MOLECULE>
NNC(=O)CCC(=O)Nc1cc(Cl)c(Cl)cc1Cl

>  <RESULT>
> 100 µM

$$$$
>  <MOLECULE>
N#CCCSC1SC(=C2SC3=C(SCCS3)S2)SC1SCCC#N (stereo not drawn)

>  <RESULT>
> 100 µM

$$$$
>  <MOLECULE>
COc1ccc(-c2cnnn2-c2cc(OC)c3c(c2)OCO3)cc1

>  <RESULT>
> 100 µM

$$$$
>  <MOLECULE>
NC(=O)c1cc([N+](=O)[O-])c(Cl)c([N+](=O)[O-])c1

>  <RESULT>
5.61 µM

$$$$
>  <MOLECULE>
CC(=O)CCC(=O)C(=[N+]=[N-])S(=O)(=O)c1ccccc1

>  <RESULT>
> 100 µM

$$$$

Task item: For the molecule shown here, COc1ccc(-c2cc(-c3ccccc3)nc(N3CCN(CCNc4ccnc5cc(Cl)ccc45)CC3)n2)cc1 , give the reported TGI.
Reply: 3.45 µM

Task item: Now consider C[C@H]1[C@H](C)CC[C@]2(C(=O)N3CCN(C)CC3)CC[C@]3(C)C(=CC[C@@H]4[C@@]5(C)C/C(=C/c6cccnc6)C(=O)C(C)(C)[C@@H]5CC[C@]43C)[C@H]12 .
Reply: 1.87 µM

Task item: Would you kindly repeat that for Cc1ccc(/C=C2/SC(Nc3nc(-c4nc(NC5=NC(=O)/C(=C\c6ccc(C)cc6)S5)sc4C)c(C)s3)=NC2=O)cc1 ?
Reply: 38.9 µM

Task item: Moving on to COCC1N=C(c2cc(OC)c(OC)c(OC)c2-c2cc3c(cc2C2OCCCO2)OCO3)O[C@H]1c1ccccc1 (stereo partly drawn)
Reply: > 100 µM

Task item: Ok, now O=c1[nH]/c(=C/c2ccc(OCc3ccccc3)cn2)c(=O)[nH]/c1=C/c1ccc(Cl)cc1
Reply: > 100 µM

Task item: Further, for NC1=C(Br)C(=O)c2ncccc2C1=O ?
Reply: 0.671 µM

Task item: Same question for c1cc(CCN2CCCCC2)ccn1 please.
Reply: > 100 µM

Task item: Record: COC(=O)[C@@H](O)[C@]1(C(=O)OC)C2O[C@@H](OC)[C@@H]1CCCCCC[C@H]2O
Reply: > 100 µM

---

System: MALME-3M melanoma
Experiment: NCI tumour cell line growth inhibition, 48 h
PROPERTY_MEASURED: TGI

Reference set, count: 5
>  <COMPOUND>
CCn1c2ccccc2c2ccc3c(c21)C(=O)c1ccccc1C3=O

>  <PROPERTY_MEASURED>
TGI

>  <RESULT>
> 100 µM

$$$$
>  <COMPOUND>
Cc1ccc(NC(=O)c2cc3ccccc3c(N=Nc3ccccc3O)c2O)c(C)c1

>  <PROPERTY_MEASURED>
TGI

>  <RESULT>
5.87 µM

$$$$
>  <COMPOUND>
COc1ccn2c(C(C)=O)cc(C(=O)c3ccc4c(c3)Sc3ccccc3N4)c2c1

>  <PROPERTY_MEASURED>
TGI

>  <RESULT>
> 100 µM

$$$$
>  <COMPOUND>
COc1ccc2oc(=O)cc(C)c2c1

>  <PROPERTY_MEASURED>
TGI

>  <RESULT>
> 100 µM

$$$$
>  <COMPOUND>
CC1CC(c2cccc3c2OCO3)=Nc2ccccc2S1 (stereo unspecified)

>  <PROPERTY_MEASURED>
TGI

>  <RESULT>
> 100 µM

$$$$

Task item: TGI lookup needed for COc1ccc(-c2cc(-c3ccc(Nc4ccnc5cc(Cl)ccc45)cc3)nc(N)c2C#N)cc1 , thanks.
Reply: > 100 µM

Task item: Do the same for O=C(N/N=C/c1ccc([N+](=O)[O-])cc1)c1cccc2nc3ccccc3nc12 please
Reply: > 100 µM

---

Tested on: NCI-H226 lung
Experiment: NCI tumour cell line growth inhibition, 48 h
PROPERTY_MEASURED: GI50

// worked examples, GI50 included
>  <MOLECULE>
CC(C)(O)C1CCC(Nc2ccc3ncc(-c4cccc(C(F)(F)F)c4)n3n2)CC1 (stereo not given)

>  <GI50>
2.19 µM

$$$$
>  <MOLECULE>
NC(=NC1CCCCCCC1)c1ccc(N2CCN(c3ccc(C(N)=NC4CCCCCCC4)cc3)CC2)cc1

>  <GI50>
11.5 µM

$$$$
>  <MOLECULE>
COc1cc2c3c(n(CCCNCC(OC)OC)c(=O)c2cc1OC)-c1cc2c(cc1C3=O)OCO2

>  <GI50>
6.63 µM

$$$$
>  <MOLECULE>
COc1cc(C(O)c2nc3ccccc3s2)cc(OC)c1OC (stereo not given)

>  <GI50>
47.1 µM

$$$$

Task item: # get_value(readout='GI50', item= CN(c1ccc(NC(=O)Nc2ccc(OC(F)(F)F)cc2)cc1)c1ccnc(Nc2cccc(S(N)(=O)=O)c2)n1 )
Reply: 3.28 µM

FYI, the data here is from PubChem BioAssay (NCI).
